Let's look at some molecules and their measured pIC50 (FF).
molecular target: RORγ (UniProt P51449); construct: hRORg-LBD|aa259-518|NP_005051.2; hRORgt|aa1-497|NP_001001523 (RORg, t isoform, 497aa); mRORg-LBD|aa264-516|NP_035411; assay type: cell-based; details: firefly (FF) luciferase, 293T cells, 16 h
Simply state the number, no unit and no words.

[[record]]
entry_smiles = "Cn1c(CC2CCCCC2)c(-c2cc(C(C)(C)C)cc(C3(C)CC3)c2)c(Cl)c1C(=O)N[C@H]1C[C@H](C(=O)O)C1"
observable = "pIC50 (FF)"
observed_measurement = 7.2

[[record]]
entry_smiles = "Cn1c(C(=O)NC2CCOCC2)cc(-c2ccc(S(=O)(=O)NC(C)(C)C)c(C(C)(C)C)c2)c1CC1CCCCC1"
observable = "pIC50 (FF)"
observed_measurement = 7.1

[[record]]
entry_smiles = "CC(C)(C)c1cc(-c2[nH]c(C(=O)N[C@H]3C[C@H](C(=O)O)C3)c(Cl)c2CC2CCCCC2)cc(C2(C)CC2)c1"
observable = "pIC50 (FF)"
observed_measurement = 6.6

[[record]]
entry_smiles = "Cc1c(C(=O)NC2CCOCC2)cn(-c2cc(C(C)(C)C)cc(C3(C)CC3)c2)c1C(=O)N1CCCCC1"
observable = "pIC50 (FF)"
observed_measurement = 7.1

[[record]]
entry_smiles = "CC(C)(C)c1cc(-c2nc(C(N)=O)nn2CC2CCCCC2)cc(C(C)(C)C)c1O"
observable = "pIC50 (FF)"
observed_measurement = 5.9

[[record]]
entry_smiles = "Cn1c(C(=O)N2CCC(C)(C(=O)O)CC2)cc(-c2cc(C(C)(C)C)cc(C3(C)CC3)c2)c1CC1CCCCC1"
observable = "pIC50 (FF)"
observed_measurement = 7.5


Attention now turns to another entry.
I would be grateful if you could share the reported pIC50 (FF) for `Cn1c(C(=O)N[C@H]2C[C@H](C(=O)O)C2)cc(-c2ccc(S(=O)(=O)NC(C)(C)C)c3ccccc23)c1CC1CCCCC1` .
7.7
